Target: MAO-A enzyme (Homo sapiens)
Construct: purchased Sigma-Aldrich Chemicals (St. Louis, MO)
Sequence (P21397 1-527): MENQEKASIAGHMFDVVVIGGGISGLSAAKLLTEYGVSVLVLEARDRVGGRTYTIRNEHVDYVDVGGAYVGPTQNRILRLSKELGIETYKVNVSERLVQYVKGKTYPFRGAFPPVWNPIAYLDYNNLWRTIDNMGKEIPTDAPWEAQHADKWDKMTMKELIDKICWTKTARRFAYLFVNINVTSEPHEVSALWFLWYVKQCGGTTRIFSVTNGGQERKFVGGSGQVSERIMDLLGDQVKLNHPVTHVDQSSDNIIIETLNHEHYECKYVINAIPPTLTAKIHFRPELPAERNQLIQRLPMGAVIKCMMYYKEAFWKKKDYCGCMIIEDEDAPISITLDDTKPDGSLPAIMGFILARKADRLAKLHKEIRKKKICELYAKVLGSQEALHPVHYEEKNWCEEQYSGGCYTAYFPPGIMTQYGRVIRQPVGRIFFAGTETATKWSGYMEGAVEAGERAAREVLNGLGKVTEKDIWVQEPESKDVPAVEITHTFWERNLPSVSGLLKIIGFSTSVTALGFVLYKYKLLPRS
Assay: MAO activity assay, fluorimetric, kynuramine substrate (MAO-A)
Assay type: biochemical
Conditions: 10^−4 M
Given measured MAO-A inhibition %, output Fulfilled if it is greater than or equal to 7% and Not fulfilled if not.

Cc1ccc(N2CCN(C(=S)SCC(=O)N3CCN(c4ncccn4)CC3)CC2)cc1    Fulfilled
CN1CCN(C(=S)SCC(=O)N2CCN(c3ncccn3)CC2)CC1    Fulfilled
O=C(CSC(=S)N1CCN(C2CCCCC2)CC1)N1CCN(c2ncccn2)CC1    Not fulfilled
CN(C)CCN1CCN(C(=S)SCC(=O)N2CCN(c3ncccn3)CC2)CC1    Fulfilled
O=C(CSC(=S)N1CCN(c2ccc(Cl)cc2)CC1)N1CCN(c2ncccn2)CC1    Not fulfilled
O=C(CSC(=S)N1CCN(CCO)CC1)N1CCN(c2ncccn2)CC1    Fulfilled

Request: Can O=C(CSC(=S)N1CCN(c2ncccn2)CC1)N1CCN(c2ncccn2)CC1 be said to have MAO-A inhibition % at or above 7%?
Result: Fulfilled
